- experiment-description: Plasma and tissue distribution in SD rats
- Type: in vivo
- run-conditions: female SD rat, PO 10 mg/kg, Bone Marrow
measure-name: Tmax
Number plus unit, in that order.

Requested field: Tmax. Item: C[C@@H](c1ccc(Nc2cc(Nc3ncccc3S(C)(=O)=O)ncn2)nc1)N1CC2(COC2)C1
30 min

* * *

- experiment-description: Plasma and tissue distribution in SD rats
- Type: in vivo
- run-conditions: female; F SD rat, Plasma
measure-name: Cmax
Number plus unit, in that order.

Requested field: Cmax. Item: C[C@@H](c1ccc(Nc2cc(Nc3ncc(F)cc3S(C)(=O)=O)ncn2)nc1)N1CC2(COC2)C1 [Compound 2]
625 ng/mL

* * *

- experiment-description: Plasma and tissue distribution in SD rats
- Assay type: in vivo
- run-conditions: female; F SD rat, Plasma; read-out: AUCINF_obs
measure-name: AUC0-inf
Number plus unit, in that order.

Requested field: AUC0-inf. Item: C[C@@H](c1ccc(Nc2cc(Nc3ncc(F)cc3S(C)(=O)=O)ncn2)nc1)N1CC2(COC2)C1 [Compound 2]
4140 ng·h/mL

* * *

- experiment-description: Plasma and tissue distribution in SD rats
- Assay type: in vivo
- run-conditions: female SD rat, PO 10 mg/kg, Skin
measure-name: Cmax (ng/g)
Lab book: enter the figure in ng/g, no units written.

Requested field: Cmax. Item: C[C@@H](c1ccc(Nc2cc(Nc3ncccc3S(C)(=O)=O)ncn2)nc1)N1CC2(COC2)C1
893

* * *

- experiment-description: Plasma and tissue distribution in SD rats
- Format: in vivo
- run-conditions: male, SD, rat, bladder / plasma, po, 10 mg/kg, male SD rat, PO 10 mg/kg, Bladder; Tissue AUC0-last/Plasma AUC0-last; read-out: AUC Ratio
measure-name: Kp
Lab note: jot the number down without any unit.

Requested field: Kp. Item: C[C@@H](c1ccc(Nc2cc(Nc3ncccc3S(C)(=O)=O)ncn2)nc1)N1CC2(COC2)C1
3.37

* * *

- experiment-description: Plasma and tissue distribution in SD rats
- Format: in vivo
- run-conditions: female, Sprague-Dawley; F SD rat, Spleen
measure-name: Tmax (min)
Lab book: enter the figure in min, no units written.

Requested field: Tmax. Item: C[C@@H](c1ccc(Nc2cc(Nc3ncc(F)cc3S(C)(=O)=O)ncn2)nc1)N1CC2(COC2)C1
30

* * *

- experiment-description: Plasma and tissue distribution in SD rats
- Format: in vivo
- run-conditions: female, Sprague-Dawley (SD); F SD rat, Eye; read-out: AUCINF_obs
measure-name: AUC0-inf (µg·h/mL)
Lab book: enter the figure in µg·h/mL, no units written.

Requested field: AUC0-inf. Item: C[C@@H](c1ccc(Nc2cc(Nc3ncc(F)cc3S(C)(=O)=O)ncn2)nc1)N1CC2(COC2)C1
4.91

* * *

- experiment-description: Mouse plasma pharmacokinetics, PO 5 mg/kg
- Type: in vivo
measure-name: Total systemic exposure (AUCinf)

Answered cases to consult:
C[C@@H](c1ccc(Nc2cc(Nc3ncc(F)cc3S(C)(=O)=O)ncn2)nc1)N1CC2(COC2)C1 [Compound 2] ... ††† (†††: >2000)
Cc1nc(Nc2cc(Nc3ncccc3S(C)(=O)=O)ncn2)ccc1[C@H](C)N1CC2(COC2)C1 (stereo in doubt) [Compound 12] ... †† (††: 1000-2000)
CC(c1ccc(Nc2cc(Nc3ncccc3S(C)(=O)=O)ncn2)nc1C(F)(F)F)N1CC2(COC2)C1 (stereo in doubt) [Compound 11] ... ††† (†††: >2000)
CS(=O)(=O)c1cccnc1Nc1cc(Nc2ccc3c(n2)CCCC3N2CC3(COC3)C2)ncn1 (stereo in doubt) [Compound 5] ... ††† (†††: >2000)

Now, please, on to the next molecule.
Requested field: Total systemic exposure (AUCinf). Item: C[C@@H](c1ccc(Nc2cc(Nc3ncccc3S(C)(=O)=O)ncn2)nc1)N1CC2(COC2)C1 [Compound 1]
†† (††: 1000-2000)

* * *

- system-tested: TYK2-JH2 (Homo sapiens, UniProt P29597)
- Construct: TYK JH2 enzyme mix (ChemPartner: CP20210818A-BV); purchased ChemPartner CP20210818A-BV
- Sequence (P29597 589-875 limits assumed): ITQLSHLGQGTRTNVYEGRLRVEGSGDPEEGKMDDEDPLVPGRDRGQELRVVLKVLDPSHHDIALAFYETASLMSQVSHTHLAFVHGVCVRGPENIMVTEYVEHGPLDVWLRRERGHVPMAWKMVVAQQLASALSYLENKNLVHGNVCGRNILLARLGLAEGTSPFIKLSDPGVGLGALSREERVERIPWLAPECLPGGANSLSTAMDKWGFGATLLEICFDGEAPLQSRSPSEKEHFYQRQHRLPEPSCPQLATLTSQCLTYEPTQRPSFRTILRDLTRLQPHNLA
- experiment-description: TYK2-JH2 HTRF binding assay (ligand efficiency)
- run-conditions: calculated from binding-assay IC50 (Equation 1)
measure-name: Ligand Efficiency

Cc1cccc(Nc2cc(Nc3ccncc3S(C)(=O)=O)ncn2)n1 [Compound 60] ... ††† (†††: >0.39)
Cn1ccc(Nc2cc(Nc3ccccc3C(N)=O)ncn2)n1 [Compound 67] ... ††† (†††: >0.39)
Cn1ccc(Nc2cc(Nc3ccccc3S(C)(=O)=O)ncn2)n1 [Compound 66] ... ††† (†††: >0.39)

* * *

- experiment-description: Plasma and tissue distribution in SD rats
- Format: in vivo
- run-conditions: female, Sprague-Dawley; F SD rat, Spleen
measure-name: Cmax (ng/mL)
Lab book: enter the figure in ng/mL, no units written.

Requested field: Cmax. Item: C[C@@H](c1ccc(Nc2cc(Nc3ncc(F)cc3S(C)(=O)=O)ncn2)nc1)N1CC2(COC2)C1 [Compound 2]
12500

* * *

- experiment-description: Log D (octanol / phosphate buffer pH 7.4)
- Assay type: physicochemical
- run-conditions: octanol/potassium phosphate buffer, pH 7.4, octanol / potassium phosphate buffer pH 7.4
Below, each entry is listed with its recorded logD at 1 h.

C[C@@H](c1ccc(Nc2cc(Nc3ncc(F)cc3S(C)(=O)=O)ncn2)nc1)N1CC2(COC2)C1 [Compound 2] ... ~1.6

Now, please, on to the next compound.
Requested field: logD at 1 h. Item: C[C@@H](c1ccc(Nc2cc(Nc3ncccc3S(C)(=O)=O)ncn2)nc1)N1CC2(COC2)C1 [Compound 1]
~1.3

* * *

- experiment-description: Plasma and tissue distribution in SD rats
- Format: in vivo
- run-conditions: Sprague-Dawley, rat, spleen, oral, SD rat, Spleen; read-out: Tissue/Plasma Ratio (AUCinf)
measure-name: Kp

C[C@@H](c1ccc(Nc2cc(Nc3ncc(F)cc3S(C)(=O)=O)ncn2)nc1)N1CC2(COC2)C1 ... 12

Now, please, on to the next compound.
Requested field: Kp. Item: C[C@@H](c1ccc(Nc2cc(Nc3ncccc3S(C)(=O)=O)ncn2)nc1)N1CC2(COC2)C1
5.4

* * *

- experiment-description: Plasma and tissue distribution in SD rats
- Assay type: in vivo
- run-conditions: female; F SD rat, Liver
measure-name: Tmax (min)
Lab book: enter the figure in min, no units written.

Requested field: Tmax. Item: C[C@@H](c1ccc(Nc2cc(Nc3ncc(F)cc3S(C)(=O)=O)ncn2)nc1)N1CC2(COC2)C1
30

* * *

- experiment-description: Plasma and tissue distribution in SD rats
- Format: in vivo
- run-conditions: male; M SD rat, Bone Marrow
measure-name: Cmax (ng/mL)
Lab book: enter the figure in ng/mL, no units written.

Requested field: Cmax. Item: C[C@@H](c1ccc(Nc2cc(Nc3ncc(F)cc3S(C)(=O)=O)ncn2)nc1)N1CC2(COC2)C1
4530

* * *

- experiment-description: Plasma and tissue distribution in SD rats
- Type: in vivo
- run-conditions: female, small intestine; F SD rat, S. Intestine; read-out: AUCINF_obs
measure-name: AUC0-inf

Requested field: AUC0-inf. Item: C[C@@H](c1ccc(Nc2cc(Nc3ncc(F)cc3S(C)(=O)=O)ncn2)nc1)N1CC2(COC2)C1
130 µg·h/mL

* * *

- experiment-description: Plasma and tissue distribution in SD rats
- Type: in vivo
- run-conditions: female, SD, rat, lung, po, 10 mg/kg, female SD rat, PO 10 mg/kg, Lung; Tissue AUC0-last/Plasma AUC0-last; read-out: AUC Ratio
measure-name: Kp
Lab note: jot the number down without any unit.

Requested field: Kp. Item: C[C@@H](c1ccc(Nc2cc(Nc3ncccc3S(C)(=O)=O)ncn2)nc1)N1CC2(COC2)C1
2.57

* * *

- experiment-description: Plasma and tissue distribution in SD rats
- Assay type: in vivo
- run-conditions: female, Sprague-Dawley; F SD rat, Bladder
- Description: The following Example describes the methods and data used to evaluate the tissue distribution of TYK2 inhibitors following the administration of either compound 1 or compound 2. Thirty (30, 15/sex) SD rats supplied by Beijing Vital River Laboratory Animal Technology Co., Ltd. were used in this study. […] The room (s) was controlled and monitored for relative humidity (targeted mean range 40% to 70%) and temperature (targeted mean range 20° C. to 26° C.) with 15 or above air changes/hour. […]
measure-name: Tmax
Number plus unit, in that order.

Requested field: Tmax. Item: C[C@@H](c1ccc(Nc2cc(Nc3ncc(F)cc3S(C)(=O)=O)ncn2)nc1)N1CC2(COC2)C1 [Compound 2]
30 min

* * *

- experiment-description: Plasma and tissue distribution in SD rats
- Assay type: in vivo
- run-conditions: female, Sprague-Dawley; F SD rat, Bladder; read-out: AUCINF_obs
measure-name: AUC0-inf (ng·h/mL)
Lab book: enter the figure in ng·h/mL, no units written.

Requested field: AUC0-inf. Item: C[C@@H](c1ccc(Nc2cc(Nc3ncc(F)cc3S(C)(=O)=O)ncn2)nc1)N1CC2(COC2)C1 [Compound 2]
18600
